Assign inhibition to each entry below.
biological target: Solute carrier family 2, facilitated glucose transporter member 1 (Homo sapiens); assay: ST_JUDE_LEISH: Cytotoxicity at 2uM final concentration against transgenic Leishmania Mexicana promastigotes LmGLUT1 that are glucose transport deficient and complemented with the human glucose transporter GLUT1. Activity is measured by DNA content using SYBR green in vitro; format: functional
Answers are plain numbers, in %.

{"columns": ["compound", "measurement.target", "unit", "inhibition"],
 "data": [
  ["Cc1cc(C=C(P(=O)(OC(C)C)OC(C)C)P(=O)(OC(C)C)OC(C)C)c2ccccc2c1O", "Solute carrier family 2, facilitated glucose transporter member 1 (Homo sapiens)", "%", 6.71],
  ["O=C(N[C@@H](Cc1ccccc1)C(=O)NC1CCCc2ccccc21)c1ccc(O)c(-c2cccc(C(F)(F)F)c2)c1 (some centres undefined)", "Solute carrier family 2, facilitated glucose transporter member 1 (Homo sapiens)", "%", -3.38]
]}

Answer for every listed entry: what is its inhibition? The entries follow.
1. O=S(=O)(Nc1ccc(CCN2CCC(N3CCCCC3)CC2)cc1)c1ccc2ccccc2c1
2. Cc1ccc(C)c(Sc2ccc(NC(=O)CN3CCN(C(=O)c4ccco4)CC3)cc2)c1
3. Cc1ccc(C(O)CNc2ccnc(Nc3cccc(-c4csc(C)n4)c3)n2)cc1 (centres undefined)
4. CCOc1ccc2[nH]c(C)cc(=NN=Cc3ccc(Cl)cc3)c2c1
5. O=C(C=Cc1ccccc1)Nc1ccc(C#CC=Cc2ccc(NC(=O)C=Cc3ccccc3)cc2)cc1
6. O=C(NC1CCN(Cc2ccc3c(c2)OCCO3)CC1)c1ccc(-c2cccc(Cl)c2)s1
7. Oc1ccc(CCNCc2ccc(OCc3ccccc3)c(OCc3ccccc3)c2)cc1

1. 4.91
2. 0.6
3. -0.56
4. -0.27
5. 2.7
6. 5.55
7. 75
